// provenance: ChEMBL document CHEMBL5385866

Entries with reported IC50 on NT-3 growth factor receptor (Homo sapiens, UniProt Q16288)
Sequence (Q16288 whole entry): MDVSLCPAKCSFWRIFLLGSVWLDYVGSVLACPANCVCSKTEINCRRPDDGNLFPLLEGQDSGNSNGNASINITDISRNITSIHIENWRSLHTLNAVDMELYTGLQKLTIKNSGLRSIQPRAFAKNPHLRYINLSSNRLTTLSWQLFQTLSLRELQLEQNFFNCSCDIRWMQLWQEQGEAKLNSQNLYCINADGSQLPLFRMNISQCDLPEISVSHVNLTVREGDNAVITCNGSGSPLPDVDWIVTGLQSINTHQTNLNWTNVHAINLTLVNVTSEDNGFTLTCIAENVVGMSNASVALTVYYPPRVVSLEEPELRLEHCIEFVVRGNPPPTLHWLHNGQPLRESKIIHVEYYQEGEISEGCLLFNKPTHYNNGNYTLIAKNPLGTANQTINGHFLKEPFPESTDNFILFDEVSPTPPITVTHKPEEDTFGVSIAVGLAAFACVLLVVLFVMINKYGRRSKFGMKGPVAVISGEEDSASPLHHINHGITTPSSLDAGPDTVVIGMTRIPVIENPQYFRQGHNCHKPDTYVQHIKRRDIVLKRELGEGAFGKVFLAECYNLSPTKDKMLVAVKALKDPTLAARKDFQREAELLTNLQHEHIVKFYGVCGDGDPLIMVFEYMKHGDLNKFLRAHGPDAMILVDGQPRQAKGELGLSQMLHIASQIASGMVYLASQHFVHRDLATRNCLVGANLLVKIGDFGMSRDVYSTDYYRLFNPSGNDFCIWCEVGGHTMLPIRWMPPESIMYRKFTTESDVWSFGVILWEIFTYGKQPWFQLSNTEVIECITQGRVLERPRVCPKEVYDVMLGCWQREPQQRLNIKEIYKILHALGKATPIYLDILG
readout_kind: IC50 (nM)

[P] CN1CCN(Cc2ccc(NC(=O)[C@@H]3CCN(c4ccc5ncc(-c6ccccn6)n5n4)C3)cc2C(F)(F)F)CC1
[Q] Cc1cn(-c2cc(NC(=O)[C@@H]3CCN(c4ccc5ncc(-c6ccccn6)n5n4)C3)cc(C(F)(F)F)c2)cn1
Of P versus Q , which is the one with smaller reported IC50? Kindly state the label of the option you pick.
P
(P: 4.3 nM, Q: 10.1 nM)

====

Hi! I'm sharing some pIC50 results obtained with BDNF/NT-3 growth factors receptor (Homo sapiens).
Sequence (Q16620 whole entry): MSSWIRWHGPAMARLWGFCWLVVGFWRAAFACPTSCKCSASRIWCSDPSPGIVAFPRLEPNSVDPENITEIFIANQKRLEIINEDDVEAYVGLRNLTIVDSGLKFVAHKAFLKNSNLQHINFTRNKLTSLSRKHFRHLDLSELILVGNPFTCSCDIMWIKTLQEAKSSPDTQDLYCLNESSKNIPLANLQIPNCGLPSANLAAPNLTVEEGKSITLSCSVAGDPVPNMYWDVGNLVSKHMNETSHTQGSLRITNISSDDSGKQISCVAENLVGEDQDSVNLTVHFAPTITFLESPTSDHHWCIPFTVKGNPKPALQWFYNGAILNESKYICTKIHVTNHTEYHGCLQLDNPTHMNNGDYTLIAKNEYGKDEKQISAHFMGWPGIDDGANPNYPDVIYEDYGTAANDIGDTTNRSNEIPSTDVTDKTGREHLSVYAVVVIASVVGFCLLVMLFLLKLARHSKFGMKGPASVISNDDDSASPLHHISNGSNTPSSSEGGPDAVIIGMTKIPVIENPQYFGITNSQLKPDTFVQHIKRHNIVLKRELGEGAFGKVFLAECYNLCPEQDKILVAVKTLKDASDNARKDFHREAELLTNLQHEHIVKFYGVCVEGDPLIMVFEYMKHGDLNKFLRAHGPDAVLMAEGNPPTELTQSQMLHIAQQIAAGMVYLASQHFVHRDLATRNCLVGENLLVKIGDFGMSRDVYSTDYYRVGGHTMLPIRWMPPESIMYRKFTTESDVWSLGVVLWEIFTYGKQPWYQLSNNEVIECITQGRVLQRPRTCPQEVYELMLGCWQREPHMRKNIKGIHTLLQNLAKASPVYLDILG
pIC50: −log10 of the molar value.
readout_kind: pIC50

1. CN1CCN(Cc2ccc(NC(=O)[C@@H]3CCN(c4ccc5ncc(-c6cnn(C7CCOCC7)c6)n5n4)C3)cc2C(F)(F)F)CC1 :: 7.57
2. Cc1cn(-c2cc(NC(=O)[C@@H]3CCN(c4ccc5ncc(-c6ccccn6)n5n4)C3)cc(C(F)(F)F)c2)cn1 :: 8.23
3. CN1CCN(Cc2ccc(NC(=O)[C@@H]3CCN(c4ccc5ncc(-c6cnn(CCO)c6)n5n4)C3)cc2C(F)(F)F)CC1 :: 7.67

[A] CN1CCN(Cc2ccc(NC(=O)[C@@H]3CCN(c4ccc5ncc(-c6cn[nH]c6)n5n4)C3)cc2C(F)(F)F)CC1
[B] CN1CCN(Cc2cc(NC(=O)[C@@H]3CCN(c4ccc5ncc(-c6ccccn6)n5n4)C3)cc(C(F)(F)F)c2)CC1
[C] CN1CCN(Cc2cc(NC(=O)[C@H]3CCN(c4ccc5ncc(-c6ccccn6)n5n4)C3)cc(C(F)(F)F)c2)CC1
Put the items in order so that reported pIC50 rises from first to last. In plain terms: list the labels in the order you were asked to.
C, A, B
(C: 7.29, A: 7.86, B: 8.29)

====

test_system: High affinity nerve growth factor receptor (Homo sapiens, UniProt P04629, G667C)
Sequence (P04629 33-796 G667C limits assumed): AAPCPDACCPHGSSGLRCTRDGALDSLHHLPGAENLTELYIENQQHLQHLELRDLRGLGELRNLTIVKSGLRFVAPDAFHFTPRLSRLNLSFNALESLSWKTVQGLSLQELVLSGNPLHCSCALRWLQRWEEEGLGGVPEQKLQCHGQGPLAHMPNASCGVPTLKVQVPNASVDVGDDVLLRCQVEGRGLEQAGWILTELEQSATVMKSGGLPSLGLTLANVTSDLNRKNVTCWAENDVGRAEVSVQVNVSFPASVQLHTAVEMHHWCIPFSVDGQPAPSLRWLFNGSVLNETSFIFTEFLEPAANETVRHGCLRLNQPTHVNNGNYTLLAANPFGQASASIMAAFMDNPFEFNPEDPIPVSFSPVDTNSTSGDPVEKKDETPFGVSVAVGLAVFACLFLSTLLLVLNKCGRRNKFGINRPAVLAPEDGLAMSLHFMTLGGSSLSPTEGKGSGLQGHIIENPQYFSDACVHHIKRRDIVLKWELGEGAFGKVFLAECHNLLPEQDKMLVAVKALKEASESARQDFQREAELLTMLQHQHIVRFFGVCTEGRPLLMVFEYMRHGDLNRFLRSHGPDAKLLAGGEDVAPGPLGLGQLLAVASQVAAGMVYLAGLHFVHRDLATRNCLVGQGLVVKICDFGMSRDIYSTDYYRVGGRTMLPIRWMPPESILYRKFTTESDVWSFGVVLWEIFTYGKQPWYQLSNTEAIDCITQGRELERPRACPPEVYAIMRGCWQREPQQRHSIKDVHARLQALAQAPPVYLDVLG
measurement_description: Inhibition of TRKA G667C mutant (unknown origin) using […] peptide as substrate incubated for 1 hr in presence of ATP by FRET based Z'-lyte assay
readout_kind: IC50 (nM)

1. CN1CCN(Cc2ccc(NC(=O)[C@@H]3CCN(c4ccc5ncc(-c6cnn(C7CCOCC7)c6)n5n4)C3)cc2C(F)(F)F)CC1 :: 35.5
2. CN1CCN(Cc2ccc(NC(=O)[C@@H]3CCN(c4ccc5ncc(-c6ccc(N)nc6)n5n4)C3)cc2C(F)(F)F)CC1 :: 16.7
3. CN1CCN(Cc2ccc(NC(=O)[C@@H]3CCN(c4ccc5ncc(-c6cnn(CCO)c6)n5n4)C3)cc2C(F)(F)F)CC1 :: 52.5
4. CN1CCN(Cc2ccc(NC(=O)[C@@H]3CCN(c4ccc5ncc(-c6cn[nH]c6)n5n4)C3)cc2C(F)(F)F)CC1 :: 33.8
5. CN1CCN(Cc2ccc(NC(=O)[C@@H]3CCN(c4ccc5nccn5n4)C3)cc2C(F)(F)F)CC1 :: 938
6. CN1CCN(Cc2cc(NC(=O)[C@@H]3CCN(c4ccc5ncc(-c6ccccn6)n5n4)C3)cc(C(F)(F)F)c2)CC1 :: 16.5

[a] O=C(Nc1ccc(Cl)c(C(F)(F)F)c1)N[C@@H]1CCN(c2ccc3ncc(-c4ccccn4)n3n2)C1
[b] CN1CCN(Cc2ccc(NC(=O)[C@@H]3CCN(c4ccc5ncc(-c6ccccn6)n5n4)C3)cc2C(F)(F)F)CC1
[c] Cc1cn(-c2cc(NC(=O)[C@@H]3CCN(c4ccc5ncc(-c6ccccn6)n5n4)C3)cc(C(F)(F)F)c2)cn1
[d] Cc1conc1NC(=O)N[C@@H]1CCN(c2ccc3ncc(-c4ccccn4)n3n2)C1
[e] CN1CCN(Cc2cc(NC(=O)[C@H]3CCN(c4ccc5ncc(-c6ccccn6)n5n4)C3)cc(C(F)(F)F)c2)CC1
Thanks in advance: please rank these 5 entries by IC50, highest to lowest. # format: label list in the order the request specifies
d, e, c, a, b
